# assayed_target: GCN2 (Homo sapiens (Human))
# Sequence (Q9P2K8 whole entry): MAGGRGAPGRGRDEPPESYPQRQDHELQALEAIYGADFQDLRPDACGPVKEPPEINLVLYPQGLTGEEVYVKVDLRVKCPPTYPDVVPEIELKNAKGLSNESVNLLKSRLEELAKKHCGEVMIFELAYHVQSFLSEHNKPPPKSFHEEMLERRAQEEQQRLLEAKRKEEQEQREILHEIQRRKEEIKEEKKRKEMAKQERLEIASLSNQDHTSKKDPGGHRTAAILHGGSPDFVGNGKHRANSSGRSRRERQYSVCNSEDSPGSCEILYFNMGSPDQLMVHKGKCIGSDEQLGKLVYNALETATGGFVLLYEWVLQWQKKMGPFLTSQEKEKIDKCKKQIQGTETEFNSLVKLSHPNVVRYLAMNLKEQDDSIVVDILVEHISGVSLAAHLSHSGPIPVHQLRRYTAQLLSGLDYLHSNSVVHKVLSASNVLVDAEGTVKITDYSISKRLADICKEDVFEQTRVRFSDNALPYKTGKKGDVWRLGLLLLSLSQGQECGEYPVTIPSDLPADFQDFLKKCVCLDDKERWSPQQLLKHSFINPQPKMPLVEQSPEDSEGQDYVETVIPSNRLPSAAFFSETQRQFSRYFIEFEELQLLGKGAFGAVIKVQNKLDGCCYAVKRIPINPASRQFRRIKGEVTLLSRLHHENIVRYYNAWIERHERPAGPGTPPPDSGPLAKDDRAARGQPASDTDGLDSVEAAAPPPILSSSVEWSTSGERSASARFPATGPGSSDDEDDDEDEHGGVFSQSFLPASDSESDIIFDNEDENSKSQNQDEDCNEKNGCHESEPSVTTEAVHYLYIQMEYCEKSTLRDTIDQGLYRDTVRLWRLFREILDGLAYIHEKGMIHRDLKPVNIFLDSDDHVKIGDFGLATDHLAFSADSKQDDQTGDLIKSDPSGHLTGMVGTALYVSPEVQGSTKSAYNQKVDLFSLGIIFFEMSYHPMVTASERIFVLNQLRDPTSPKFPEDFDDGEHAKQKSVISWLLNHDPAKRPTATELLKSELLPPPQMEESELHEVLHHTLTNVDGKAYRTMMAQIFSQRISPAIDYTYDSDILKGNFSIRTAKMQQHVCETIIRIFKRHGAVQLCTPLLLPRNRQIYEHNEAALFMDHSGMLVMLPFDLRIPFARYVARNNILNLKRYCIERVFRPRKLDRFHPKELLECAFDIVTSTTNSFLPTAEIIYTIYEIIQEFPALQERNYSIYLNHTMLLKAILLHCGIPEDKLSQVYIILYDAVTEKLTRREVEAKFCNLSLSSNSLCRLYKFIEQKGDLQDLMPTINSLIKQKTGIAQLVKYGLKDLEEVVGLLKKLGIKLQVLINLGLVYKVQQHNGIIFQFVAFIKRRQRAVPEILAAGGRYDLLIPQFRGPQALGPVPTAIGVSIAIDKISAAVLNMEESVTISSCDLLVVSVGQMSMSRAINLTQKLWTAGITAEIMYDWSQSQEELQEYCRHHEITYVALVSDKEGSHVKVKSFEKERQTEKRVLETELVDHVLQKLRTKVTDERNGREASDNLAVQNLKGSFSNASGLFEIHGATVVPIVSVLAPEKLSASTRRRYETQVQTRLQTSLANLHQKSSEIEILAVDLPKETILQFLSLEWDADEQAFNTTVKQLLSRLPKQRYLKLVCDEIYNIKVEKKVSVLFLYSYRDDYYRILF
# assay_remarks: TR-FRET biochemical assay for inhibition of GCN2
pIC50: −log10 of the molar value.
In this section we review reported pIC50 values for a set of compounds.

Use the examples below as a reference point.
[
  {
    "compound": "COc1ncc(Cl)cc1S(=O)(=O)Nc1ccc(F)c([C@@H]2Cn3cnc(-c4ncc[nH]4)c3CN2C)c1F",
    "endpoint": "pIC50",
    "reported_measurement": "6.30 to 7.30"
  },
  {
    "compound": "CNC(=O)c1ncn2cc(-c3c(F)ccc(NS(=O)(=O)c4cc(Cl)cnc4OCC(F)(F)F)c3F)ncc12",
    "endpoint": "pIC50",
    "reported_measurement": "6.00 to 6.30"
  },
  {
    "compound": "Cc1ncc(F)cc1S(=O)(=O)Nc1ccc(F)c(-c2ccc3c(-c4ccn(C)n4)ncn3c2)c1F",
    "endpoint": "pIC50",
    "reported_measurement": "6.30 to 7.30"
  },
  {
    "compound": "COc1ncc(Cl)cc1S(=O)(=O)Nc1ccc(F)c(-c2ccc3c(C(C)O)ncn3c2)c1F (centres unmarked)",
    "endpoint": "pIC50",
    "reported_measurement": "6.00 to 6.30"
  },
  {
    "compound": "CNC(=O)c1ncn2cc(-c3c(F)ccc(NS(=O)(=O)c4cc(Cl)cnc4OCC(C)C)c3F)ncc12",
    "endpoint": "pIC50",
    "reported_measurement": "6.00 to 6.30"
  },
  {
    "compound": "CNC(=O)c1ncn2cc(-c3c(F)ccc(NS(=O)(=O)c4cc(Cl)cnc4OC4CC4)c3F)ncc12",
    "endpoint": "pIC50",
    "reported_measurement": "6.30 to 7.30"
  }
]

Entry under test: "CNC(=O)c1ncn2cc(-c3c(F)ccc(NS(=O)(=O)c4cc(Cl)cnc4OC)c3C)ccc12" . Its pIC50 was 6.30 to 7.30

Entry under test: "CNC(=O)c1ncn2cc(-c3c(F)ccc(NS(=O)(=O)c4cc(Cl)cnc4OC)c3F)sc12" . Its pIC50 was 6.00 to 6.30

Entry under test: CNC(=O)c1ncn2c1CCC(c1c(Cl)ccc(NS(=O)(=O)c3cc(F)cnc3OC)c1F)C2 (stereo in doubt) . Its pIC50 was 6.30 to 7.30

Entry under test: "COc1ncc(C#N)cc1S(=O)(=O)Nc1ccc(F)c(-c2cn3cnc(-c4nnc(C)[nH]4)c3cn2)c1F" . Its pIC50 was 6.30 to 7.30

Entry under test: "COc1ncc(C#N)cc1S(=O)(=O)Nc1ccc(F)c([C@H]2CCc3c(-c4ncc[nH]4)ncn3C2)c1F" . Its pIC50 was 6.30 to 7.30

Entry under test: "CNC(=O)c1ncn2c1CC[C@H](c1c(F)ccc(NS(=O)(=O)c3cc(C#N)cnc3OC)c1F)C2" . Its pIC50 was 6.30 to 7.30

Entry under test: "CNC(=O)c1ncn2cc(-c3c(F)ccc(NS(=O)(=O)c4cc(C#N)cc(C(F)(F)F)c4)c3F)ccc12" . Its pIC50 was 6.30 to 7.30

Entry under test: "CNC(=O)c1ncn2cc(-c3c(F)ccc(NS(=O)(=O)c4cc(Cl)cnc4OC)c3C#N)ncc12" . Its pIC50 was 6.30 to 7.30

Entry under test: "CNC(=O)c1ncn2cc(-c3c(F)ccc(NS(=O)(=O)c4cc(C#N)cnc4OC)c3F)ncc12" . Its pIC50 was 6.30 to 7.30

Entry under test: "CNC(=O)c1ncn2cc(-c3c(F)ccc(NS(=O)(=O)c4cc(F)cnc4C)c3F)ncc12" . Its pIC50 was 6.30 to 7.30

Entry under test: "CNC(=O)c1ncn2c1CC[C@H](c1c(F)ccc(NS(=O)(=O)c3cc(Cl)cnc3OC)c1F)C2" . Its pIC50 was 6.30 to 7.30

Entry under test: "COc1ncc(Cl)cc1S(=O)(=O)Nc1ccc(F)c(-c2ccc3c(CO)ncn3c2)c1F" . Its pIC50 was 6.00 to 6.30

Entry under test: "COc1ncc(C#N)cc1S(=O)(=O)Nc1ccc(F)c([C@@H]2CCc3c(-c4ncc[nH]4)ncn3C2)c1F" . Its pIC50 was 6.30 to 7.30

Entry under test: "COc1ncc(Cl)cc1S(=O)(=O)Nc1ccc(F)c(-c2ccc3c(-n4nccn4)ncn3c2)c1F" . Its pIC50 was 6.00 to 6.30

Entry under test: "COc1ncc(Cl)cc1S(=O)(=O)Nc1ccc(F)c(-c2cn3cnc(C(=O)NCCCN(C)C)c3cn2)c1F" . Its pIC50 was 6.30 to 7.30

Entry under test: "COc1ncc(Cl)cc1S(=O)(=O)Nc1ccc(F)c([C@H]2Cn3cnc(-c4ncc[nH]4)c3CN2C)c1F" . Its pIC50 was 6.30 to 7.30

Entry under test: "CNC(=O)c1ncn2cc(-c3c(F)ccc(NS(=O)(=O)c4cc(Cl)cnc4OC)c3F)c(=O)n(C)c12" . Its pIC50 was 6.30 to 7.30

Entry under test: "CNC(=O)c1ncn2cc(-c3c(F)ccc(NS(=O)(=O)c4cc(Cl)cnc4OC(C)C)c3F)ncc12" . Its pIC50 was 6.30 to 7.30

Entry under test: "COc1ncc(F)cc1S(=O)(=O)Nc1ccc(F)c(-c2cn3cnc(-c4nnc(C)[nH]4)c3cn2)c1F" . Its pIC50 was 6.30 to 7.30

Entry under test: "CNC(=O)c1ncn2c(F)c(-c3c(F)ccc(NS(=O)(=O)c4cc(F)cnc4OC)c3F)ncc12" . Its pIC50 was 6.30 to 7.30

Entry under test: "COc1ncc(Cl)cc1S(=O)(=O)Nc1ccc(F)c(-c2ccc3c(-c4nnc[nH]4)ncn3c2)c1F" . Its pIC50 was > 7.30

Entry under test: "CNC(=O)c1ncn2c1CC[C@H](c1c(F)ccc(NS(=O)(=O)c3cc(F)cnc3OC)c1Cl)C2" . Its pIC50 was 6.30 to 7.30

Entry under test: "CNC(=O)c1ncn2c(C)c(-c3c(F)ccc(NS(=O)(=O)c4cc(Cl)cnc4OC)c3F)ccc12" . Its pIC50 was 6.30 to 7.30
